Molecular target: T1, macaca fascicularis (mf) PRLR.mmh (soluble monomeric monkey PRLR) (Macaca fascicularis)
T1 construct: called soluble monomeric PRLR protein
T1 chain: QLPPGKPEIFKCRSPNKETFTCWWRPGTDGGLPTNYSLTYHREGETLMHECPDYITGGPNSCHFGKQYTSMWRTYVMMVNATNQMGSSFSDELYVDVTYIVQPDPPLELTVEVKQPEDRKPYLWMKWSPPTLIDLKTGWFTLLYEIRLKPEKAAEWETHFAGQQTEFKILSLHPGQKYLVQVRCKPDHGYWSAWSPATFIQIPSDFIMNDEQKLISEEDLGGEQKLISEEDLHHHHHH
Experiment: SPR Biacore, 25 C, mAb capture
Endpoint: kon (M⁻¹ s⁻¹)
Numbers only; they are read as M⁻¹ s⁻¹.

get_value(item= H1H6793P (antibody, human IgG1, V domains shown, Human IgG1 Fc (H1H)) VH: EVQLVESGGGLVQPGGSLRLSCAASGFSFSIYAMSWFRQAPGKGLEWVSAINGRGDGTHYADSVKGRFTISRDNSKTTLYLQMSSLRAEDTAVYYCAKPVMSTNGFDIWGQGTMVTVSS VL: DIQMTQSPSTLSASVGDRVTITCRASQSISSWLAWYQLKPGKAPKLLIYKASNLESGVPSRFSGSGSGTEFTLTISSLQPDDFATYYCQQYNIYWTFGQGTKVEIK , readout=kon) returns 177000

get_value(item= H1H6790P (antibody, human IgG1, V domains shown, Human IgG1 Fc (H1H)) VH: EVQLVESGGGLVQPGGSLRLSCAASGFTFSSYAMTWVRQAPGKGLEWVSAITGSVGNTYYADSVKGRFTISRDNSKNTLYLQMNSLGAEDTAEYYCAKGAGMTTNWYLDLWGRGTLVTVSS VL: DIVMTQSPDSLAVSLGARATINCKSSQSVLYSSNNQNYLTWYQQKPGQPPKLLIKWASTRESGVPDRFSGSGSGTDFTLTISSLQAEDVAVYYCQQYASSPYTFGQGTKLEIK , readout=kon) returns 389000

get_value(item= H1H6953N (antibody, human IgG1, V domains shown, Tested with human IgG1 Fc (H1H); also called H1M6953N) VH: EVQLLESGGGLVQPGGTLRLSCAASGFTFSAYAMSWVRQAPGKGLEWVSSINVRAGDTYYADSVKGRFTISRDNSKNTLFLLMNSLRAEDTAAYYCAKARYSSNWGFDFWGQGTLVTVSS VL: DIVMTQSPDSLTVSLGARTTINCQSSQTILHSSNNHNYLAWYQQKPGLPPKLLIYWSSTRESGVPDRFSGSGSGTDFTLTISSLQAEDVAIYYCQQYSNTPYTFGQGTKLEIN , readout=kon) returns 727000
